Where do these numbers come from? They come from patent US12291533B2.

Target: glucocerebrosidase (Homo sapiens, UniProt P04062)
Test: Glucocerebrosidase activity assay with blue substrate (4MU-Glc)
Type: biochemical
Settings: Table 2; additional compounds, tested as described in Example 2
Doc: threshold 600% (exclusive). Items with Emax beneath it return true; others return false.

Answered examples (4):
Cc1cc(-c2nc(N(C)CCOc3ccccc3)c3ccccc3n2)ccn1 : true
c1cncc(-c2nc(N3CCc4cccnc4C3)c3ccccc3n2)c1 : true
CN(CCOc1ccccc1)c1cc(N2CCC(CO)CC2)nc(-c2cccnc2)n1 : false
CCn1ncc2c(N(C)CCOc3ccc(C#N)cc3)nc(-c3ccsc3)nc21 : true

Alright, here's another compound for you.
Prompt: Say whether its Emax is strictly beneath 600%. Entry: CCn1ncc2c(N(C)CCOc3ccc(CNC(=O)CCNC(=O)OC(C)(C)C)cc3)nc(-c3cccnc3)nc21
Completion: false

* * *

Molecular target: glucocerebrosidase (Homo sapiens, UniProt P04062)
Sequence (P04062 40-536): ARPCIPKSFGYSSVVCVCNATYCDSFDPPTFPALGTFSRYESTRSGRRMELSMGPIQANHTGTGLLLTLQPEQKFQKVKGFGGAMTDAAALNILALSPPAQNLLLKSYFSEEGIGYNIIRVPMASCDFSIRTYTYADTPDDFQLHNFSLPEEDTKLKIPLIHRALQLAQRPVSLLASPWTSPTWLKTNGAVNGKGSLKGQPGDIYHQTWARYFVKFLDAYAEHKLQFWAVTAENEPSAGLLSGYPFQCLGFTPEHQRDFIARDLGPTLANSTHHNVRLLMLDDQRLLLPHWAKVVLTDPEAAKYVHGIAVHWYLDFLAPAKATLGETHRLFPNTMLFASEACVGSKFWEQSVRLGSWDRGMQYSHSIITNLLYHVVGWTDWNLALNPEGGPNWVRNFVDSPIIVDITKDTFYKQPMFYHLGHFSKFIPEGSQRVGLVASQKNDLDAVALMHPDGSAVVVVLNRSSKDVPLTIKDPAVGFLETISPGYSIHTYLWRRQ
Test: Glucocerebrosidase activity assay with blue substrate (4MU-Glc)
Format: biochemical
Details: Table 1; 7.5 nM enzyme, 1.5 mM 4MU-Glc, 30 min at 37° C.
Class (required): determined from Emax; valid ranges are lo (below 200%), mid (200% to below 500%), hi (500% or more)

Before answering, review these 10 worked examples.
CN(CCOc1ccccc1)c1nc(-c2cccnc2)nc2c(C(F)(F)F)cccc12 : mid
CN(CCOc1ccccc1)c1nc(-c2cccnc2)nc2cccc(F)c12 : lo
CN(CCOc1ccccc1)c1nc(-c2cccnc2)nc2c1CCCC2 : lo
CN(CCOc1cccc(CC(=O)ON2C(=O)CCC2=O)c1)c1nc(-c2cccnc2)nc2c1cnn2C : hi
COC(=O)c1cccc(OCCN(C)c2nc(-c3cccnc3)nc3ccccc23)c1 : mid
CN(CCOc1ccccc1)c1nc(-c2cccnc2)nc2ccoc12 : hi
CN(CCOc1ccccc1)c1nc(-c2cccnc2)nc2sccc12 : hi
CN(Cc1cc2ccccc2o1)c1nc(-c2cccnc2)nc2c1cnn2C : hi
c1ccc(O[C@@H]2CCCN(c3nc(-c4cccnc4)nc4ccccc34)C2)cc1 : mid
CN(CCOc1ccccc1)c1nc(-c2ccc(Cl)nc2)nc2ccccc12 : lo

Prompt: Form: Item = C#Cc1ccc(OCCN(C)c2nc(-c3cccnc3)nc3ccccc23)cc1 ; Class = ?
Completion: lo

Prompt: Now try CN(CCOc1cccc(C(=O)ON2C(=O)CCC2=O)c1)c1nc(-c2cccnc2)nc2ccccc12 .
Completion: mid

Prompt: And then CN(CCOc1ccccc1)c1nc(-c2cccnc2)nn2cccc12 , what is it?
Completion: hi

Prompt: Another compound to check: Cc1ccccc1OCCN(C)c1nc(-c2cccnc2)nc2ccccc12
Completion: mid

Prompt: Note, next up: Cc1nn(Cc2ccccc2)c(C)c1Nc1nc(-c2cccnc2)nc2ccccc12
Completion: lo

Prompt: What do you have for CCn1ncc2c(N(C)CCOc3ccc(CN)cc3)nc(-c3cccnc3)nc21 ?
Completion: hi

Prompt: One more compound: CN(CCOc1ccccc1)c1cc(N2CCOCC2)nc(-c2cccnc2)n1
Completion: mid

Prompt: Entry CN(CC1CCc2ccccc2O1)c1nc(-c2cccnc2)nc2c1cnn2C (stereo not shown) please
Completion: hi

Prompt: What do you have for COC(=O)c1ccc(OCCN(C)c2nc(-c3cccnc3)nc3ccccc23)cc1 ?
Completion: mid

Prompt: Same again, this time with c1ccc(OCCOc2nc(-c3cccnc3)nc3ccccc23)cc1
Completion: lo

Prompt: What do you have for CN(CCOc1ccccc1)c1nc(Nc2ccccc2)nc2ccccc12 ?
Completion: lo

Prompt: Also, CN(CCOc1ccccc1)c1nc(-c2cccnc2)nc2c1ncn2C please.
Completion: hi

Prompt: Same again, this time with CN(CCOc1ccccc1)c1nc(-c2cccnc2)nc2cc(F)ccc12
Completion: mid

Prompt: CN(CCOc1ccc2c(c1)CCCC2)c1nc(-c2cccnc2)nc2c1cnn2C , same question.
Completion: mid

Prompt: Would you mind doing CN(CCOc1ccccc1)c1nc(-c2cncc(Cl)c2)nc2ccccc12 as well?
Completion: mid

Prompt: Then this compound: CN(CCOc1ccccc1)c1nc(-c2cccnc2)nc2ccc(C(F)(F)F)cc12
Completion: lo

Prompt: Let us now turn to Cc1csc2c(N(C)CCOc3ccccc3)nc(-c3cccnc3)nc12
Completion: mid

Prompt: Same read-out for CN(CCOc1ccccc1)c1nc(-c2cccnc2)nc2cc(C(F)(F)F)ccc12 ?
Completion: lo
